# ASSAY SUMMARY: Oral bioavailability in Wistar rat at 50 mg/kg administered as single dose in presence of L-carnitine by UPLC-MS/MS method
# Assay type: ADME, organism-based
# STUDY CONDITIONS: in vivo, with L-carnitine
OBSERVABLE: bioavailability (%)
Give just the number in %; leave the unit off.

Request: Input C[N+](C)(C)CC(CC(=O)[O-])OC(=O)CCC(=O)Nc1ccn([C@@H]2O[C@H](CO)[C@@H](O)C2(F)F)c(=O)n1 (stereo partly specified) , output reported bioavailability.
Result: 6

----------
# Test system: Rattus norvegicus
# ASSAY SUMMARY: AUC (0 to 24 hrs) in Wistar rat at 50 mg/kg, po administered as single dose by UPLC-MS/MS method
# Type: ADME, organism-based
# Parameters: dose 50 mg/kg, time < 24 hr, route oral
# STUDY CONDITIONS: in vivo
Think of 10000 ng·h/mL as a floor: if AUC stands on it or above, it is t; beneath it, f.

Request: Say whether Nc1ccn([C@@H]2O[C@H](CO)[C@@H](O)C2(F)F)c(=O)n1 shows AUC of 10000 ng·h/mL or more.
Result: f

Request: Say whether C[N+](C)(C)CC(CC(=O)[O-])OC(=O)CCCCCCCCC(=O)Nc1ccn([C@@H]2O[C@H](CO)[C@@H](O)C2(F)F)c(=O)n1 (stereo partly specified) shows AUC of 10000 ng·h/mL or more.
Result: t

Request: Say whether CCCC(=O)Nc1ccn([C@@H]2O[C@H](CO)[C@@H](O)C2(F)F)c(=O)n1 shows AUC of 10000 ng·h/mL or more.
Result: f

Request: Say whether C[N+](C)(C)CC(CC(=O)[O-])OC(=O)CCCCCCC(=O)Nc1ccn([C@@H]2O[C@H](CO)[C@@H](O)C2(F)F)c(=O)n1 (stereo partly specified) shows AUC of 10000 ng·h/mL or more.
Result: t

Request: Say whether C[N+](C)(C)CC(CC(=O)[O-])OC(=O)CCCCC(=O)Nc1ccn([C@@H]2O[C@H](CO)[C@@H](O)C2(F)F)c(=O)n1 (stereo partly specified) shows AUC of 10000 ng·h/mL or more.
Result: t

Request: Say whether C[N+](C)(C)CC(CC(=O)[O-])OC(=O)CCC(=O)Nc1ccn([C@@H]2O[C@H](CO)[C@@H](O)C2(F)F)c(=O)n1 (stereo partly specified) shows AUC of 10000 ng·h/mL or more.
Result: t

----------
# ASSAY SUMMARY: Half life in pH 1.2 phosphate buffer at 5 uM by HPLC method
# Format: physicochemical
OBSERVABLE: half-life at 5 µM (h)
Give just the number in h; leave the unit off.

Request: Input C[N+](C)(C)CC(CC(=O)[O-])OC(=O)CCC(=O)Nc1ccn([C@@H]2O[C@H](CO)[C@@H](O)C2(F)F)c(=O)n1 (stereo partly drawn) , output reported half-life at 5 µM.
Result: 5.5

Request: Input CCCC(=O)Nc1ccn([C@@H]2O[C@H](CO)[C@@H](O)C2(F)F)c(=O)n1 , output reported half-life at 5 µM.
Result: 1

Request: Input C[N+](C)(C)CC(CC(=O)[O-])OC(=O)CCCCC(=O)Nc1ccn([C@@H]2O[C@H](CO)[C@@H](O)C2(F)F)c(=O)n1 (stereo partly drawn) , output reported half-life at 5 µM.
Result: 4.4

These entries and their values trace back to ChEMBL document CHEMBL4049387.
